Catalogue of S/N(SA) values
Target: T1, Orencia
T1 sequence (chain, INN chains, looked up, looked up): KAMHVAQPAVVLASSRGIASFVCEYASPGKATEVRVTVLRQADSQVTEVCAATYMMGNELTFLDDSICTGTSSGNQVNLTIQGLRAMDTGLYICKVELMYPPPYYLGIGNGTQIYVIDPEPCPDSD
Assay: ELISA, signal on Orencia over SA
MEASURED_ATTRIBUTE: S/N(SA)

- BINDER: "GGCMHPFLQVASHHFCGG (peptide, not shown: large carriers; small tags and cut ends, MBP fusion) [C4-302mat-2-1-40]"
  MEASURED_ATTRIBUTE: "S/N(SA)"
  ENDPOINT_VALUE: 6.9
- BINDER: "GGCVHPFLQVVSHHFCGG (peptide, not shown: large carriers; small tags and cut ends, MBP fusion; also called #29) [C4-302mat-1-100-23]"
  MEASURED_ATTRIBUTE: "S/N(SA)"
  ENDPOINT_VALUE: 5.4
- BINDER: "GGCVHPFLPVVSHHFCRG (peptide, not shown: large carriers; small tags and cut ends, MBP fusion; also called #12) [C4-302mat-3-100-20]"
  MEASURED_ATTRIBUTE: "S/N(SA)"
  ENDPOINT_VALUE: 3.7
- BINDER: "GGCMHPFLQTVSHHFCGG (peptide, not shown: large carriers; small tags and cut ends, MBP fusion; also called #22) [C4-302mat-3-1-35]"
  MEASURED_ATTRIBUTE: "S/N(SA)"
  ENDPOINT_VALUE: 5.3
- BINDER: "GGCKHPYLPVASHHFCRG (peptide, not shown: large carriers; small tags and cut ends, MBP fusion; also called #14) [C4-302mat-3-1-10]"
  MEASURED_ATTRIBUTE: "S/N(SA)"
  ENDPOINT_VALUE: 10.3
- BINDER: "GGCMHPFLPVVSHHFCGG (peptide, not shown: large carriers; small tags and cut ends, MBP fusion) [C4-302mat-1-1-24]"
  MEASURED_ATTRIBUTE: "S/N(SA)"
  ENDPOINT_VALUE: 14.7
- BINDER: "GGCLHPFLPLVSHHFCGG (peptide, not shown: large carriers; small tags and cut ends, MBP fusion; also called #9) [C4-302mat-2-1-38]"
  MEASURED_ATTRIBUTE: "S/N(SA)"
  ENDPOINT_VALUE: 16.4
- BINDER: "GGCMHPFLPVVSHHFCRG (peptide, not shown: large carriers; small tags and cut ends, MBP fusion) [C4-302mat-2-100-18]"
  MEASURED_ATTRIBUTE: "S/N(SA)"
  ENDPOINT_VALUE: 16.1
- BINDER: "GGCMHPYLLVVSHHFCGR (peptide, not shown: large carriers; small tags and cut ends, MBP fusion; also called #40) [C4-302mat-2-100-24]"
  MEASURED_ATTRIBUTE: "S/N(SA)"
  ENDPOINT_VALUE: 4
- BINDER: "GGCMHPYLPVISHHFCGG (peptide, not shown: large carriers; small tags and cut ends, MBP fusion; also called #15) [C4-302mat-2-1-27]"
  MEASURED_ATTRIBUTE: "S/N(SA)"
  ENDPOINT_VALUE: 13.7
- BINDER: "GGCMHPFLLVASHHFCGV (peptide, not shown: large carriers; small tags and cut ends, MBP fusion) [C4-302mat-2-1-37]"
  MEASURED_ATTRIBUTE: "S/N(SA)"
  ENDPOINT_VALUE: 2.3
- BINDER: "GGCKHPFLRVVSHHFCRR (peptide, not shown: large carriers; small tags and cut ends, MBP fusion; also called #34) [C4-302mat-2-1-12]"
  MEASURED_ATTRIBUTE: "S/N(SA)"
  ENDPOINT_VALUE: 8.5
- BINDER: "GGCMHPYLLVVSRHFCGR (peptide, not shown: large carriers; small tags and cut ends, MBP fusion; also called #41) [C4-302mat-3-1-15]"
  MEASURED_ATTRIBUTE: "S/N(SA)"
  ENDPOINT_VALUE: 5.4
- BINDER: "GGCIHPFLQVVSHHFCGG (peptide, not shown: large carriers; small tags and cut ends, MBP fusion; also called #28) [C4-302mat-1-1-21]"
  MEASURED_ATTRIBUTE: "S/N(SA)"
  ENDPOINT_VALUE: 2.7
- BINDER: "GGCMHPFLPVVSHHFCGA (peptide, not shown: large carriers; small tags and cut ends, MBP fusion) [C4-302mat-3-1-48]"
  MEASURED_ATTRIBUTE: "S/N(SA)"
  ENDPOINT_VALUE: 14.6
- BINDER: "GDCKHPYLLTVSHHFCGR (peptide, not shown: large carriers; small tags and cut ends, MBP fusion; also called #42) [C4-302mat-3-1-25]"
  MEASURED_ATTRIBUTE: "S/N(SA)"
  ENDPOINT_VALUE: 4.3
- BINDER: "GGCMHPFLRIVSQHFCRR (peptide, not shown: large carriers; small tags and cut ends, MBP fusion; also called #35) [C4-302mat-2-1-24]"
  MEASURED_ATTRIBUTE: "S/N(SA)"
  ENDPOINT_VALUE: 2.4
- BINDER: "GGCMHPFLPIVSHHFCGS (peptide, not shown: large carriers; small tags and cut ends, MBP fusion; also called #18) [C4-302mat-2-100-27]"
  MEASURED_ATTRIBUTE: "S/N(SA)"
  ENDPOINT_VALUE: 25.2

The measured values listed here are drawn from patent US20240092836A1.
